- System: dorsal skin of rats with essential fatty acid deficiency
- ASSAY EXPLANATION: Test 2: percutaneous absorption of 14C-salicylic acid through excised dorsal skin of treated rats
- Assay type: in vivo, Wistar male rats
- CONDITION: 10% diamide derivative and 90% squalane; once a day for 2 weeks; radioactivity of 14C-salicylic acid penetrated in 2 hours through excised skin; mean
ATTRIBUTE MEASURED: Percutaneous absorption

Sample answers from the record:
// query Reported Percutaneous absorption, compound CCCCCCCCCCCCOCCCNC(=O)CCCCCCC(C)CCCCC(C)CCCCCCC(=O)NCCCOCCCCCCCCCCCC (stereo not drawn) [Compound (G)] : ____
// result 1096

// query // lookup Percutaneous absorption for O=C(CCCCCCCCCCC(=O)NCCOCCO)NCCOCCO [Compound (K)]
// result 1694

// query Please report the recorded Percutaneous absorption for O=C(CCCCCCCCC(=O)NCCOCCO)NCCOCCO [Compound (D)] .
// result 997

// query Reported Percutaneous absorption, compound O=C(CCCCCCCCCCCCCCCCCCC(=O)NCCOCCO)NCCOCCO [Compound (C)] : ____
// result 1685

// query Which measured Percutaneous absorption value corresponds to O=C(CCCCCCCCCCCCCC(=O)NCCOCCO)NCCOCCO [Compound (I)] ?
// result 1197

// query Could you tell me which Percutaneous absorption is on file for C/C(=C\CC/C=C(\C)CCCCCCC(=O)NCCOCCO)CCCCCCC(=O)NCCOCCO [Compound (B)] ?
// result 558

More entries:
// query Quick check: Percutaneous absorption of COCCCNC(=O)CCCCCCCCC(=O)NCCCOC [Compound (N)] ?
// result 1560

// query Give the measured Percutaneous absorption of COCCCNC(=O)CCCCCCC(C)CCCCC(C)CCCCCCC(=O)NCCCOC (stereo not drawn) [Compound (F)] .
// result 1487

// query Can you share its Percutaneous absorption? I mean this compound: O=C(CCCCCCCCCCCC(=O)NCCOCCO)NCCOCCO [Compound (J)]
// result 1490

// query Item CCCCCCCCCCCCOCCCNC(=O)CCCCCCCCC(=O)NCCCOCCCCCCCCCCCC [Compound (O)] has what recorded Percutaneous absorption?
// result 2476

// query For the compound shown here, COCCCNC(=O)CCCCCCCCCCCCCCCCCCC(=O)NCCCOC [Compound (L)] , give the reported Percutaneous absorption.
// result 705

----------
- Test system: dorsal skin of rats with essential fatty acid deficiency
- ASSAY EXPLANATION: Test 2: percutaneous absorption of 14C-salicylic acid through excised dorsal skin of treated rats
- Type: in vivo, Wistar male rats
- CONDITION: 10% diamide derivative and 90% squalane; once a day for 2 weeks; radioactivity of 14C-salicylic acid penetrated in 2 hours through excised skin; mean
ATTRIBUTE MEASURED: Percutaneous absorption
The answer should be a number; do not append a unit.

Illustrative cases are given below, each with its answer.
// query What value of Percutaneous absorption has been recorded for this entry: O=C(CCC(=O)NCCOCCO)NCCOCCO [Compound (E)]
// result 1772

// query Form field: reported Percutaneous absorption of CC(CCCCCCC(=O)NCCOCCO)CCCCC(C)CCCCCCC(=O)NCCOCCO (stereo not shown)
// result 572

// query Reported Percutaneous absorption for COCCCNC(=O)CCCCCCCCCCC(=O)NCCCOC : what is it?
// result 2038

Proceed to the following item.
// query Suppose we examine the compound COCCOCCNC(=O)CCCCCCC(C)CCCCC(C)CCCCCCC(=O)NCCOCCOC (stereo not shown) ; what Percutaneous absorption value has been reported?
// result 2036

Entry source: patent US20040115162A1
